Molecular target: porcine group 1B PLA2 (pps PLA2) (Sus scrofa)
Construct: purchased
Sequence (P00592 23-146): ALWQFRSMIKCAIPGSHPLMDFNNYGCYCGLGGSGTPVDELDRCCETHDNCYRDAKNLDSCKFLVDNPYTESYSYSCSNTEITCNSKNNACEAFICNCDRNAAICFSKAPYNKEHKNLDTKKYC
Experiment: Fluorimetric PPyrPM assay for group 1B PLA2 inhibition (Example 12)
Format: biochemical
Details: porcine pancreas secreted PLA2; read-out: ILYPSA IC50 pps PLA2
pIC50: −log10 of the molar value.
MEASURE NAME: pIC50

{"COMPOUND": "Cc1c(C(=O)C(N)=O)c2c(OCC(=O)NS(C)(=O)=O)nccc2n1Cc1ccccc1", "MEASURE NAME": "pIC50", "QUANTITATIVE RESULT": 7.40}
{"COMPOUND": "Cc1c(C(=O)C(N)=O)c2c(OCC(=O)O)cccc2n1CCCCCCCCCCCCSCCCCCCCCCCCCn1c(C)c(C(=O)C(N)=O)c2c(OCC(=O)O)cccc21", "MEASURE NAME": "pIC50", "QUANTITATIVE RESULT": 6.28}
{"COMPOUND": "Cc1c(C(=O)C(N)=O)c2c(OC(C(=O)O)C(=O)O)cccc2n1Cc1ccccc1", "MEASURE NAME": "pIC50", "QUANTITATIVE RESULT": 5.65}
{"COMPOUND": "Cc1c(C(=O)C(N)=O)c2c(OC(CC(C)C)C(=O)O)cccc2n1Cc1ccccc1 (stereo not drawn)", "MEASURE NAME": "pIC50", "QUANTITATIVE RESULT": 7.70}
{"COMPOUND": "Cc1c(C(=O)C(N)=O)c2c(OC(C(=O)O)C(C)C)cccc2n1CCCCCCCCCCCCOc1ccccc1OCCCCCCCCCCCCn1c(C)c(C(=O)C(N)=O)c2c(OC(C(=O)O)C(C)C)cccc21 (stereo not drawn)", "MEASURE NAME": "pIC50", "QUANTITATIVE RESULT": 6.62}
{"COMPOUND": "Cc1c(C(=O)C(N)=O)c2c(OCC(=O)O)cccc2n1CCCCCCCCCCCCSSCCCCCCCCCCCCn1c(C)c(C(=O)C(N)=O)c2c(OCC(=O)O)cccc21", "MEASURE NAME": "pIC50", "QUANTITATIVE RESULT": 6.14}

* * *

Assay: Mouse pharmacokinetic study, IV vs oral (Example 18)
Assay type: in vivo, male CD-1 mice
Conditions: male, CD-1, mouse, in vivo; PO 30 mg/kg vs IV 3 mg/kg, serum by LC/MS/MS
Entries and their bioavailability values follow.

{"COMPOUND": "Cc1c(C(=O)C(N)=O)c2c(OC(C(=O)O)C(C)C)cccc2n1CCCCCCCCCCCCOc1ccccc1OCCCCCCCCCCCCn1c(C)c(C(=O)C(N)=O)c2c(OC(C(=O)O)C(C)C)cccc21 (stereo not shown)", "bioavailability [%]": 8.75}
{"COMPOUND": "Cc1c(C(=O)C(N)=O)c2c(OCC(=O)O)cccc2n1CCCCCCCCCCCCOc1ccccc1-c1ccccc1OCCCCCCCCCCCCn1c(C)c(C(=O)C(N)=O)c2c(OCC(=O)O)cccc21", "bioavailability [%]": 0.15}
{"COMPOUND": "Cc1c(C(=O)C(N)=O)c2c(OCC(=O)O)cccc2n1CCCCCCCCCCCCOc1ccccc1OCCCCCCCCCCCC(=O)O", "bioavailability [%]": 1.62}
{"COMPOUND": "Cc1c(C(=O)C(N)=O)c2c(OCC(=O)O)cccc2n1CCCCCCCCCCCCOc1ccc(C(C)(C)c2ccc(OCCCCCCCCCCCCn3c(C)c(C(=O)C(N)=O)c4c(OCC(=O)O)cccc43)cc2)cc1", "bioavailability [%]": 0}
